These entries and their values trace back to patent US20250277057A1.

Exercise: for every item that follows, state its recorded Span.
tgt: T1, human activated protein C (human, UniProt P04070 43-197; P04070 212-461)
T1 construct: In the plasma assays aPC is generated in human plasma with Protac; also called aPC; haPC
test: ELISA, plate coated with haPC 1 ug/mL, anti-hIgG-Fc-HRP
Give bare numbers.

Use these answered entries as a reference point.
HAPC-14-5 (antibody, V domains shown, Whole IgG, backbone hIgG1; also called HPAC 14-5) VH: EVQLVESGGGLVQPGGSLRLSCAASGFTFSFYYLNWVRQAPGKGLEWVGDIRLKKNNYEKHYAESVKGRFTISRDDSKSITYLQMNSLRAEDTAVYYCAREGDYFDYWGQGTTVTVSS VL: DIQLTQSPSSLSASVGDRVTITCRASESVDSFGATFMHWYQQKPGKAPKLLIYLASWLGSGVPSRFSGSGSGTDFTLTISSLQPEDFATYYCVQNNEDPYTFGQGTKLEIK	1.63
HAPC-14-3 (antibody, V domains shown, Whole IgG, backbone hIgG1; also called HPAC 14-3; No. 3) VH: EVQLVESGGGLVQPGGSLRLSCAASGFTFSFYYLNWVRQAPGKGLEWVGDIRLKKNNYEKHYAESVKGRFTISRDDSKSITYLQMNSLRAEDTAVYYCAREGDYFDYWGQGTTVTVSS VL: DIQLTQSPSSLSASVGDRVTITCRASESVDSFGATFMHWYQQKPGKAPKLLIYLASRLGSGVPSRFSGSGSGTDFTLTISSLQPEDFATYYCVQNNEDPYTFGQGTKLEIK	1.61

State recorded Span for all listed binders.
1. Humanized antibody 14 (HAPC-14) (antibody, V domains shown, also called Humab001-14; NO; 14 antibody) VH: EVQLVESGGGLVQPGGSLRLSCAASGFTFSNYYLNWVRQAPGKGLEWVGDIRLKSNNYEKHYAESVKGRFTISRDDSKSITYLQMNSLRAEDTAVYYCAREGDYFDYWGQGTTVTVSS VL: DIQLTQSPSSLSASVGDRVTITCRASESVDSFGATFMHWYQQKPGKAPKLLIYLASNLESGVPSRFSGSGSGTDFTLTISSLQPEDFATYYCQQNNEDPYTFGQGTKLEIK
2. HAPC-14-8 (antibody, V domains shown, Whole IgG, backbone hIgG1; also called HPAC 14-8) VH: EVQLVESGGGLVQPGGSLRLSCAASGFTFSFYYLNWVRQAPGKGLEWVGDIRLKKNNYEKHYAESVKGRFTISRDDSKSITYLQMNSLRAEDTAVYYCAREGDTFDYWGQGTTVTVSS VL: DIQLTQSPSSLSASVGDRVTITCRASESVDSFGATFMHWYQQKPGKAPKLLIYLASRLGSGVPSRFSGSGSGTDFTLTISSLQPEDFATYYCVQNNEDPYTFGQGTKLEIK
3. HAPC-14-10 (antibody, V domains shown, Whole IgG, backbone hIgG1; also called HPAC 14-10) VH: EVQLVESGGGLVQPGGSLRLSCAASGFTFSNYYLNWVRQAPGKGLEWVGDIRLKKNNYEKHYAESVKGRFTISRDDSKSITYLQMNSLRAEDTAVYYCAREGDTFDYWGQGTTVTVSS VL: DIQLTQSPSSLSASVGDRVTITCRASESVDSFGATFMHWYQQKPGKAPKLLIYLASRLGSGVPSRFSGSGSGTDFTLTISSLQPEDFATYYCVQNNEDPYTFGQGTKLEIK
4. HAPC-14-7 (antibody, V domains shown, Whole IgG, backbone hIgG1; also called HPAC 14-7) VH: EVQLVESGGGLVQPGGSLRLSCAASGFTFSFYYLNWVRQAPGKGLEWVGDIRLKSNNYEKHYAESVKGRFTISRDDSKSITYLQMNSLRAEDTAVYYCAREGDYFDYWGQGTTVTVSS VL: DIQLTQSPSSLSASVGDRVTITCRASESVDSFGATFMHWYQQKPGKAPKLLIYLASRLESGVPSRFSGSGSGTDFTLTISSLQPEDFATYYCQQNNEDPYTFGQGTKLEIK
5. HAPC-14-1 (antibody, V domains shown, Whole IgG, backbone hIgG1; also called HPAC14-1) VH: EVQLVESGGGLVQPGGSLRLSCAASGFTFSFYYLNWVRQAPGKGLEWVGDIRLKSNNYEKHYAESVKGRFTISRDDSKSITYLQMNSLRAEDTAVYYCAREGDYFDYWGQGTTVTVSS VL: DIQLTQSPSSLSASVGDRVTITCRASESVDSFGATFMHWYQQKPGKAPKLLIYLASWLGSGVPSRFSGSGSGTDFTLTISSLQPEDFATYYCQQNNEDPYTFGQGTKLEIK
6. HAPC-14-2 (antibody, V domains shown, Whole IgG, backbone hIgG1; also called HPAC 14-2) VH: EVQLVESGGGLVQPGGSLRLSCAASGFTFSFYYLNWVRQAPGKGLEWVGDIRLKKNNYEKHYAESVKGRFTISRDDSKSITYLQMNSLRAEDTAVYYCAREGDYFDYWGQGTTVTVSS VL: DIQLTQSPSSLSASVGDRVTITCRASESVDSFGATFMHWYQQKPGKAPKLLIYLASWLESGVPSRFSGSGSGTDFTLTISSLQPEDFATYYCVQNNEDPYTFGQGTKLEIK
7. HAPC-14-4 (antibody, V domains shown, Whole IgG, backbone hIgG1; also called HPAC 14-4) VH: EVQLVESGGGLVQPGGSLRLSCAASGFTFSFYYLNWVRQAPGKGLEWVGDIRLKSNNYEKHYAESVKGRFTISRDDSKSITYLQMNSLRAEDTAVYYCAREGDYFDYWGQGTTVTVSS VL: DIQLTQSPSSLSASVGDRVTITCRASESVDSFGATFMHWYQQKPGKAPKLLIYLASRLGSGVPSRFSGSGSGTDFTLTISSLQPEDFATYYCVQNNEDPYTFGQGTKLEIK
8. HAPC-14-9 (antibody, V domains shown, Whole IgG, backbone hIgG1; also called HPAC 14-9) VH: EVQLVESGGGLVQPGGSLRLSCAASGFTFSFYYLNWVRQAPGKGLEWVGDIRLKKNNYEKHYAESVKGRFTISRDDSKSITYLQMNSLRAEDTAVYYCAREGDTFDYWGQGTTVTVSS VL: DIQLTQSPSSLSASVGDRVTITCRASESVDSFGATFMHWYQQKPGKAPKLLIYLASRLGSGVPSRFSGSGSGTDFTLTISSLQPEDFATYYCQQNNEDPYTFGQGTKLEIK

0.291
1.05
0.745
1.58
2.11
1.77
1.52
1.07

Item HAPC-14-6 (antibody, V domains shown, Whole IgG, backbone hIgG1; also called HPAC 14-6; No. 6) VH: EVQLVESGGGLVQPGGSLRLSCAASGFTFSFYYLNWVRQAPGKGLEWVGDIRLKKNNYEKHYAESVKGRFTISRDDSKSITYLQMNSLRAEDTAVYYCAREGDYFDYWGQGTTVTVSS VL: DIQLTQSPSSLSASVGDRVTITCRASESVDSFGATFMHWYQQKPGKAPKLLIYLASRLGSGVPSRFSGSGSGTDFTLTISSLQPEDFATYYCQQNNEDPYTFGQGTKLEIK has what recorded Span?
1.85
